- method: Stability in 5% NaHCO3/D2O at room temperature, monitored by PMR
- Format: physicochemical
- run parameters: 5% NaHCO3/D2O, room temperature, 4 days; read-out: % Hydrolysis

>  <structure>
C[C@H]1[C@H](OC(=O)CCC(=O)O)O[C@@H]2O[C@@]3(C)CC[C@H]4[C@H](C)CC[C@@H]1[C@@]24OO3

>  <degraded at 96 h [%]>
45

$$$$

====

- method: Stability in 5% NaHCO3/D2O at room temperature, monitored by PMR
- Type: physicochemical
- run parameters: 5% NaHCO3/D2O, room temperature, 9 days; read-out: % Hydrolysis

>  <structure>
C[C@H]1[C@H](OC(=O)CCC(=O)O)O[C@@H]2O[C@@]3(C)CC[C@H]4[C@H](C)CC[C@@H]1[C@@]24OO3

>  <reading unit>
%

>  <degraded at 216 h>
82

$$$$
